# Measured Target: C-Raf FL (full length CRAF with Y340E and Y341E activating mutations, co-expressed with h14-3-3 zeta) (Homo sapiens (Human), UniProt P04049, Y340E/Y341E)
# Sequence (P04049 whole entry Y340E/Y341E): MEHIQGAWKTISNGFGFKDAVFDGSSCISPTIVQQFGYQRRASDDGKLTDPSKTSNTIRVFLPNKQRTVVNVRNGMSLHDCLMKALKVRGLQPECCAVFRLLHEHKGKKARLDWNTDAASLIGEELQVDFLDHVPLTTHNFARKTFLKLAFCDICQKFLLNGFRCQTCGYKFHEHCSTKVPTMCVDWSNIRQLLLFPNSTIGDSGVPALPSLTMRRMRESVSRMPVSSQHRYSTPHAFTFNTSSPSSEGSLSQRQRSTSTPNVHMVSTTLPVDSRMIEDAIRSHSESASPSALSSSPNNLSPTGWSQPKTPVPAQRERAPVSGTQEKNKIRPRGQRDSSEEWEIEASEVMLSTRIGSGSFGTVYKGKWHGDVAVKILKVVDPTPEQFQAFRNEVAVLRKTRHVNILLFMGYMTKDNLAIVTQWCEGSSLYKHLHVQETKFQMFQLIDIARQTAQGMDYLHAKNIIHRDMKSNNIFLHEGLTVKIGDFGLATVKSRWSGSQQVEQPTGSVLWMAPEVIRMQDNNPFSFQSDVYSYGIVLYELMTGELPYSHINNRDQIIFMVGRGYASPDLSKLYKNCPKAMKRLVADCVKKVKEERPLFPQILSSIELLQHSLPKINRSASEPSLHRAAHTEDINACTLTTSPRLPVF
# Sequence (P63104 whole entry partner): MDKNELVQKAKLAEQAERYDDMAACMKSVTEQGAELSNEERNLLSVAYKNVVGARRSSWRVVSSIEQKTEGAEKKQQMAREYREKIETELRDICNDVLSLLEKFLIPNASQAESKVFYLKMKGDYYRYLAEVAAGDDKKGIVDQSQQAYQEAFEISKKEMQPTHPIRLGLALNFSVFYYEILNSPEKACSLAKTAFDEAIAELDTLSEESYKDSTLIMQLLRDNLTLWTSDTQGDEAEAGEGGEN
# Assay Explanation: In vitro Raf activity determination, AlphaScreen p-MEK readout, c-Raf (C-Raf FL)
# Condition Info: c-Raf approximately 4 nM, ATP 1 μM, pre-incubation 60 minutes, reaction 1 hour
// IC50 lookup, one value per entry
Dear colleague, please return just the value in nM, with no unit written.

Cc1ncc(NC(=O)c2cccc(C(F)(F)F)c2)cc1-c1cc(F)c2c(c1)N1CCOC[C@H]1[C@](F)(CO)C2 :: 0.8
Cc1ccc(NC(=O)c2ccnc(C(F)(F)F)c2)cc1-c1cc(F)c2c(c1)N1CCOC[C@H]1[C@@](F)(CO)C2 :: 0.8
Cc1ccc(NC(=O)c2ccnc(C(C)(F)F)c2)cc1-c1ccc2c(c1)N1CCOC[C@H]1C[C@@H]2O (single isomer, unassigned) :: 0.019

In the following, a different compound is considered.
### Prompt Entry under review: Cc1ncc(NC(=O)c2cccc(C(F)(F)F)c2)cc1-c1cc2c(cc1F)C[C@@](F)(CO)[C@@H]1COCCN21 . Reported IC50?
### Response 4.1

* * *

# Measured Target: C-Raf FL (full length CRAF with Y340E and Y341E activating mutations, co-expressed with h14-3-3 zeta) (Homo sapiens (Human), UniProt P04049, Y340E/Y341E)
# Assay Explanation: In vitro Raf activity determination, AlphaScreen p-MEK readout, c-Raf (C-Raf FL)
# Condition Info: c-Raf approximately 4 nM, ATP 1 μM, pre-incubation 60 minutes, reaction 1 hour
Quantity Kind: IC50 (nM)
Dear colleague, please return just the value in nM, with no unit written.

Example compounds with recorded IC50:
Cc1ncc(NC(=O)c2cccc(C(F)(F)F)c2)cc1-c1ccc2c(c1)N1CCOCC1C(CS(C)(=O)=O)C2 (racemic) :: 0.8
CCN1C[C@@H]2CCOCCN2c2cc(-c3cc(NC(=O)c4cccc(C(F)(F)F)c4)cnc3C)cnc2C1=O :: 80.3
Cc1ncc(NC(=O)c2ccnc(C(C)(F)F)c2)cc1-c1cnc2c(c1)N1CCOC[C@H]1C[C@@H]2O (racemic) :: 0.046
CCN1C[C@H]2COCCN2c2cc(-c3cc(NC(=O)c4ccnc(C(F)(F)F)c4)ccc3C)cnc2C1=O :: 0.7

### Prompt Entry under review: Cc1ccc(NC(=O)c2ccnc(C(F)(F)F)c2)cc1-c1ccc2c(c1)N1CCOCC1C(CS(C)(=O)=O)C2 (racemic) . Reported IC50?
### Response 0.1

* * *

# Measured Target: C-Raf FL (full length CRAF with Y340E and Y341E activating mutations, co-expressed with h14-3-3 zeta) (Homo sapiens (Human), UniProt P04049, Y340E/Y341E)
# Assay Explanation: In vitro Raf activity determination, AlphaScreen p-MEK readout, c-Raf (C-Raf FL)
# Condition Info: c-Raf approximately 4 nM, ATP 1 μM, pre-incubation 60 minutes, reaction 1 hour
Quantity Kind: pIC50
By convention, pIC50 is the negative base-10 log of a molar concentration.

Cc1ccc(NC(=O)c2ccnc(C(C)(F)F)c2)cc1-c1cnc2c(c1)N1CCOC[C@@H]1[C@H](CO)C2 [Example 495] :: 10.00
CCN1C(=O)C[C@@H]2COCCN2c2cc(-c3cc(NC(=O)c4ccnc(C(F)(F)F)c4)ccc3C)cnc21 :: 9.74
Cc1ncc(NC(=O)c2cccc(C(F)(F)F)c2)cc1-c1cnc2c(c1)N1CCOC[C@H]1C[C@]2(C)O (racemic) :: 10.43
CCN1C(=O)C2CCOCCC2c2cc(-c3cc(NC(=O)c4ccnc(C(F)(F)F)c4)ccc3C)cnc21 (centres unmarked) [Example 247] :: 9.52

In the following, a different compound is considered.
### Prompt Entry under review: Cc1ncc(NC(=O)c2cncc(C(F)(F)F)c2)cc1-c1ccc2c(c1)N1CCOC[C@H]1[C@](F)(CF)C2 . Reported pIC50?
### Response 8.66

* * *

# Measured Target: C-Raf FL (full length CRAF with Y340E and Y341E activating mutations, co-expressed with h14-3-3 zeta) (Homo sapiens (Human), UniProt P04049, Y340E/Y341E)
# Assay Explanation: In vitro Raf activity determination, AlphaScreen p-MEK readout, c-Raf (C-Raf FL)
# Condition Info: c-Raf approximately 4 nM, ATP 1 μM, pre-incubation 60 minutes, reaction 1 hour
Class (required): determined from IC50; valid ranges are low (below 0.1 nM), intermediate (0.1 nM to below 0.5 nM), high (0.5 nM or more)

# count of solved cases: 6
Cc1ncc(NC(=O)c2ccnc(C(F)(F)F)c2)cc1-c1ccc2c(c1)N1CCOCC[C@H]1C[C@H]2O :: high
Cc1ccc(NC(=O)c2ccnc(C(C)(F)F)c2)cc1-c1ccc2c(c1)N1CCOC[C@@H]1C[C@]2(C)O :: high
Cc1ncc(NC(=O)c2cccc(C(F)(F)F)c2)cc1-c1cnc2c(c1)N1CCOC[C@H]1C[C@@]2(C)O (racemic) :: low
Cc1ncc(NC(=O)c2ccnc(C(F)(F)F)c2)cc1-c1ccc2c(c1)N1CCOCC[C@H]1C[C@@H]2O :: high
Cc1ccc(NC(=O)c2ccnc(C(F)(F)F)c2)cc1-c1ccc2c(c1)N1CCOC[C@H]1C[C@H]2O (racemic) [Example 3] :: low
Cc1ccc(NC(=O)c2ccnc(C(C)(F)F)c2)cc1-c1cc2n(c(=O)c1)CC[C@@H]1COCCN21 :: intermediate

### Prompt For this compound, which bin applies? Cc1ccc(NC(=O)c2ccnc(C(F)(F)F)c2)cc1-c1cnc2c(c1)C1C3COCC3C1C(=O)N2CCO (centres unmarked) [Example 281]
### Response intermediate

### Prompt For this compound, which bin applies? Cc1ccc(NC(=O)c2ccnc(C(F)(F)F)c2)cc1-c1cnc2c(c1)C1(C)CCOCCC1C(=O)N2CCO (single isomer, unassigned) [Example 355]
### Response high

### Prompt For this compound, which bin applies? CCN1C(=O)C2CCOCCC2c2cc(-c3cc(NC(=O)c4cccc(C(F)(F)F)c4)cnc3C)cnc21 (centres unmarked)
### Response intermediate

Data origin: patent US10377770B2
